Data credit: patent US20090082435A1

Molecular target: native rat brain MGL (Rattus norvegicus, UniProt Q8R431)
Construct: from tissue; host or cells: Wistar rat brain, cytosol fraction
Sequence (Q8R431 1-303): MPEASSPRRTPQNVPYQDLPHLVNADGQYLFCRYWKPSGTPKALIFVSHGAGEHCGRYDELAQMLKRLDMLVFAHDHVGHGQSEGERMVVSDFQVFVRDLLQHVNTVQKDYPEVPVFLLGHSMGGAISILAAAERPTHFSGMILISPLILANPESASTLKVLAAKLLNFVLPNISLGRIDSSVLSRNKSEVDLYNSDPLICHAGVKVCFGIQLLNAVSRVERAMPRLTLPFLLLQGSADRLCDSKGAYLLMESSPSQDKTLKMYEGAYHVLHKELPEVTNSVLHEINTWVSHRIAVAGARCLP
Assay: MGL activity assay, rat brain cytosol, 2-monooleoylglycerol substrate
Type: biochemical
Conditions: broken cell preparations; read-out: half-maximal concentration (IC50) for inhibition of MGL
ASSAY READOUT: IC50 (µM)
# number only, unit µM dropped from output

In: Name the reported IC50 value associated with the compound `O=C(Nc1cccc(-c2ccccc2)c1)OC1CCCCC1`
Out: 28

----------
Biological target: rat cerebellar membranes
Experiment: [35S]-GTP-γ-S binding to rat cerebellar membranes
Conditions: data not shown; read-out: half-maximal effective concentration (EC50), [35S]-GTP-γ-S binding
ASSAY READOUT: EC50

In: Name the reported EC50 value associated with the compound `O=C(Nc1cccc(-c2ccccc2)c1)OC1CCCCC1`
Out: > 100 µM
